# Test system: Inhibin beta A chain (activin A)
# assay-text: small molecules binding activin A – biochemical, small-molecule microarray, 635 nm fluorescence scan, primary screen (AID 1107);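 further: mouse activin A protein probed at 4.33 µg/mL on printed slides; score merges bound-protein fluorescence near 667 nm with spot signal-to-noise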
# reported-conditions: INHBA, higher = more signal
Decision: composite z-score compared against 0.7; not below it gives met, below it gives not met.

Known results for compounds:
compound: NC(=O)[C@]1(Cc2ccccc2)N=C(c2ccc(OCCCO)cc2)O[C@@H]1c1ccccc1
class: not met

compound: CC(C)N1C(=O)c2ccccc2[C@](C)(C(=O)NC2CC2)[C@@H]1c1ccc(CO)cc1
class: met

compound: CC(C)(C)OC(=O)CC[C@@]1(C(N)=O)N=C(c2ccc(OCCCO)cc2)O[C@@H]1c1ccccc1N=[N+]=[N-]
class: met

In the following, a different compound is considered.
[Q] Decide: is the reported value of composite z-score for "COC(=O)[C@@]1(Cc2ccccc2)[C@H]2c3cc(C(=O)N(C)C)n(Cc4cc(F)c(F)c(F)c4)c3C[C@H]2CN1C(=O)c1ccccc1" equal to or greater than 0.7?
[A] met

====

# assay-text: JC-1 mitochondrial signal, unstimulated adipocytes – cell-based, JC-1 fluorescence, 3T3-L1 adipocytes, 24 h, 100 nL compound, profiling panel (AID 1168); further: test concentration not given here
# reported-conditions: JC-1 mitochondrial fluorescence, higher = more signal, called active from +8 up or from −8 down
Decision: z-score compared against 0.5; not below it gives fulfilled, below it gives not fulfilled.

Known results for molecules:
molecule: COCCOC(=O)N1C(=O)[C@@]2(c3cc(C#CCC(C(=O)OC)C(=O)OC)ccc31)[C@H](c1ccccc1OCCO)N1[C@H](c3ccccc3)[C@H](c3ccccc3)OC(=O)[C@H]1[C@@H]2C(=O)Nc1nc2ccccc2s1
class: fulfilled

molecule: CN(C)CCCN1C(=O)[C@@]2(c3ccc([N+](=O)[O-])cc3)CC(=O)N(C3CCCCC3)[C@@H]2c2ccc(CO)cc21
class: not fulfilled

molecule: CN1C(=O)C2C(C1=O)C1C=C(c3ccc(CO)cc3)C2C(C2CC2)N1Cc1sc2ccccc2c1Cl (stereo not given)
class: not fulfilled

[Q] Decide: is the reported value of z-score for "C[C@]1(C(=O)NCC(F)(F)F)c2ccccc2C(=O)N(Cc2cc(F)cc(C(F)(F)F)c2)[C@H]1c1ccc(CO)cc1" equal to or greater than 0.5?
[A] not fulfilled

[Q] Next up: "CCOC(=O)C=Cc1cccc(OC)c1O"
[A] not fulfilled

====

# assay-text: plasmodial surface anion channel blockers, osmotic lysis – cell-based, P. falciparum Indochina, OD700, 18 h, primary screen (AID 1157)
# reported-conditions: P. falciparum Indochina infected erythrocytes, osmotic lysis OD700, 18 h; higher = more signal, called active from +8 up or from −8 down
Here the recorded z-score is given for each entry.
Answer with the value's number alone.

Answered examples (3):
compound: O=C1C2C=CC(C(O)c3ccc(-c4ccccc4)s3)N(Nc3ccccc3F)C2C(=O)N1c1ccccc1 (stereo not given)
z-score: 1.27
//
compound: C=CC[C@]1(C(=O)O)N=C(c2ccc(OCCCO)cc2)O[C@H]1c1ccccc1CN=[N+]=[N-]
z-score: 0.665
//
compound: COCCn1c(C(=O)N(C)C)cc2c1C[C@H]1CN(C(=O)c3ccccc3)[C@@](Cc3ccc(F)cc3)(C(=O)OC)[C@@H]21
z-score: 0.397

[Q] Please look up its z-score: "NC(=O)[C@]1(Cc2ccccc2)N=C(c2ccc(OCCCO)cc2)O[C@@H]1c1ccccc1"
[A] 2.19

[Q] Next up: Cc1ccc(S(=O)(=O)N2CC(C(=O)O)=CCC2c2ccccc2)cc1 (stereo not given)
[A] 0.879

[Q] Next up: "CCCC[C@H]1OB(O)C[C@H]2C1=C(COc1ccccc1)C[C@H]1C(=O)N(Cc3ccccc3)C(=O)[C@H]12"
[A] 0.475

[Q] Next up: "C=CCN1C(=O)[C@]2(COC(c3ccc(OCCCO)cc3)=N2)Cc2ccccc21"
[A] 0.181

[Q] Next up: "COCCOC(=O)N1C(=O)[C@@]2(c3cc(C#Cc4ccc(OC)cc4)ccc31)[C@H](c1ccc(OCCO)cc1)N1[C@H](c3ccccc3)[C@H](c3ccccc3)OC(=O)[C@H]1[C@@H]2C(=O)N1CCc2cc(OC)c(OC)cc2C1"
[A] 0.608

[Q] Next up: "CN(C)CCCC[C@@H]1NC(=O)[C@H]2C[C@@H](C(=O)NCCCCCNC(=O)CS)[C@@H](c3ccc(O)cc3)N2C1=O"
[A] 0.153
